meta.source: ChEMBL document CHEMBL4387775

- assay-target: TNF receptor-associated factor 6 (Homo sapiens)
- experiment-summary: Inhibition of TRAF6 (unknown origin)-mediated NFkappaB activation expressed in human HeLaS3 cells harboring 3kappaB-tk-luc at 10 uM preincubated for 1 hr followed by Il1alpha-stimulation and measured after 3 hrs in presence of DTT by dual-luciferase reporter gene assay relative to control
- Format: cell-based
Active and inactive are the calls of the source. No cut-off for these calls is given here.
measurement-label: inhibition

INSERT INTO results (mol, experimental_result) VALUES
  ('CN(C)c1ccnc(CNCCS)c1', 'inactive'),
  ('SCCNCc1ccccn1', 'inactive'),
  ('CC(C)=CCC/C(C)=C/CC/C(C)=C/COC(=O)Nc1cc(CNCCS)nc(CNCCS)c1', 'inactive'),
  ('O=[N+]([O-])c1ccccc1SSCCNCc1cccc(CNCCSSc2ccccc2[N+](=O)[O-])c1', 'inactive'),
  ('CN(C)c1cc(CNCCSSc2ccccc2[N+](=O)[O-])nc(CNCCSSc2ccccc2[N+](=O)[O-])c1', '89%'),
  ('Sc1ccccc1NCc1ccccn1', 'inactive'),
  ('O=C(CCCC[C@@H]1SC[C@@H]2NC(=O)N[C@@H]21)NCCCCCCOC(=O)Nc1cc(CNCCS)nc(CNCCS)c1', '78%'),
  ('CCCCCCCCCCCCOC(=O)Nc1cc(CNCCS)nc(CNCCS)c1', 'inactive');

Tell me its inhibition on TNF receptor-associated factor 6 (Homo sapiens): `O=[N+]([O-])c1ccccc1S` inactive

Tell me its inhibition on TNF receptor-associated factor 6 (Homo sapiens): `O=[N+]([O-])c1ccccc1SSCCNCc1cccc(CNCCSSc2ccccc2[N+](=O)[O-])n1` 84%
